All values here come from the supplement of paper PMC10065799.

Each entry below lists one item and its recorded phosphorylation enrichment value.
# target under test: Fes (UniProt P07332)
# Sequence (P07332 whole entry, looked up): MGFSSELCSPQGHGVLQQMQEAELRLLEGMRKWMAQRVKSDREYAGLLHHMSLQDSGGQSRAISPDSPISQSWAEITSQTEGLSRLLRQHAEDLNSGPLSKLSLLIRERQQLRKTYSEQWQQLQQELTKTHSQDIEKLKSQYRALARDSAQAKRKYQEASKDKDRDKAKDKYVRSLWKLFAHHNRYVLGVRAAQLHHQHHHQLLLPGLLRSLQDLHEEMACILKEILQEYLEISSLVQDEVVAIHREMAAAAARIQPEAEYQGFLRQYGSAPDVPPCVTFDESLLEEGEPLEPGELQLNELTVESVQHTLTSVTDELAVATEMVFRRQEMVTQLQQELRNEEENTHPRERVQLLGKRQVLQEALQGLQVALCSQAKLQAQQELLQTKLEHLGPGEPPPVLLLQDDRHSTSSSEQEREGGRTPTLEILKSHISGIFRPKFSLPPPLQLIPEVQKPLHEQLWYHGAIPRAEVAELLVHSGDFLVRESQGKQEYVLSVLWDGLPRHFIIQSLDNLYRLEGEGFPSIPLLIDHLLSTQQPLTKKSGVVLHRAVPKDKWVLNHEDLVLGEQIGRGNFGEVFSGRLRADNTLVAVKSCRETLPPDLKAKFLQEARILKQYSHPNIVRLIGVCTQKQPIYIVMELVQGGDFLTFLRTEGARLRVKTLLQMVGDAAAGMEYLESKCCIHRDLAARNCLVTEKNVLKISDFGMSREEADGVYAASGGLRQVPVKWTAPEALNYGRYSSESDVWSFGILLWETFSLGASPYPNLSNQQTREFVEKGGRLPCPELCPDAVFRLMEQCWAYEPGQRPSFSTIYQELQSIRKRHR
# protocol: phosphorylation enrichment, bacterial display (enrichment ratio); higher = better substrate or ligand; peptides without Tyr show the background
observable: phosphorylation enrichment

INSERT INTO measurements (sequence_string, target_under_test, observable, result_number) VALUES
  ('QLDQRYLLVPE [DDX49_Y223]', 'Fes (UniProt P07332)', 'phosphorylation enrichment', 0.978),
  ('CENNRYGMGAS [PDHA1_Y227_T231A]', 'Fes (UniProt P07332)', 'phosphorylation enrichment', 0.754),
  ('KVGPGYLGSGG [RET_Y826]', 'Fes (UniProt P07332)', 'phosphorylation enrichment', 0.451),
  ('LVTAWYIGFLC [KCNQ2_Y237]', 'Fes (UniProt P07332)', 'phosphorylation enrichment', 2.62),
  ('IVRSLYEDPED [VHL_Y185_L188P]', 'Fes (UniProt P07332)', 'phosphorylation enrichment', 1.02),
  ('VKYLGYPPPEI [KDR_Y357_A352V]', 'Fes (UniProt P07332)', 'phosphorylation enrichment', 0.719),
  ('RAHARYCADAR [ACOT4_Y52]', 'Fes (UniProt P07332)', 'phosphorylation enrichment', 1.08),
  ('CITIHYNYMCN [TP53_Y234_T230I]', 'Fes (UniProt P07332)', 'phosphorylation enrichment', 1.01),
  ('TPRNTYKMTSV [MKI67_Y849_L854V]', 'Fes (UniProt P07332)', 'phosphorylation enrichment', 0.558),
  ('CTTIHYNYLCN [TP53_Y234_M237L]', 'Fes (UniProt P07332)', 'phosphorylation enrichment', 0.84),
  ('EQDRAYLEGTC [HLA-C_Y183_L180D]', 'Fes (UniProt P07332)', 'phosphorylation enrichment', 1.14),
  ('EHLNRYINDTF [TTLL10_Y446_S448N]', 'Fes (UniProt P07332)', 'phosphorylation enrichment', 1.08);

----------
Each entry below lists one item and its recorded SH2 binding enrichment value.
# target under test: SHP2-C SH2;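 note: peptide library displayed on the E. coli surface as eCPX fusions, selected cells deep-sequenced, score is each peptide's frequency after selection divided by its frequency in the input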
# protocol: SH2 binding enrichment of the phosphorylated peptide, bacterial display (enrichment ratio); higher = better substrate or ligand; peptides without Tyr show the background
observable: SH2 binding enrichment

INSERT INTO results (sequence_string, result_number) VALUES
  ('TKVVHYWKWIK [KLK2_Y249_R250W]', 1.45),
  ('RPGSGYTKIMR [PKLR_Y564_N566K]', 1.69),
  ('TLQRMYGCDVG [HLA-B_Y123_S121R]', 0.454),
  ('RTVPLYESLRK [DDB1_Y718_P721L]', 1.07),
  ('CTTIHFNFMCN [TP53_Y234_Y234F_YF]', 2.02),
  ('SHISGYATLRR [RAPH1_Y1226]', 1.65),
  ('EILLSDLRTGF [TGM1_Y365_Y365D_YF]', 0.567),
  ('PVQAAYQKVVD [HBB_Y131_A136D]', 0.697),
  ('PLKFLYPNIDK [STAT1_Y668_YF]', 0.647),
  ('YKEQGYHRLPP [RIN1_Y681]', 0.917),
  ('YSPYDYQPCLA [TNS1_Y798]', 0.546),
  ('NLNGKCNKPRA [ANGPTL3_Y417_Y417C]', 1.24),
  ('SEDSEYFRAFE [CASQ2_Y178_K180R_YF]', 0.559);

----------
Each entry below lists one item and its recorded phosphorylation enrichment value.
# target under test: EPHB2 (UniProt P29323)
# Sequence (P29323 whole entry, looked up): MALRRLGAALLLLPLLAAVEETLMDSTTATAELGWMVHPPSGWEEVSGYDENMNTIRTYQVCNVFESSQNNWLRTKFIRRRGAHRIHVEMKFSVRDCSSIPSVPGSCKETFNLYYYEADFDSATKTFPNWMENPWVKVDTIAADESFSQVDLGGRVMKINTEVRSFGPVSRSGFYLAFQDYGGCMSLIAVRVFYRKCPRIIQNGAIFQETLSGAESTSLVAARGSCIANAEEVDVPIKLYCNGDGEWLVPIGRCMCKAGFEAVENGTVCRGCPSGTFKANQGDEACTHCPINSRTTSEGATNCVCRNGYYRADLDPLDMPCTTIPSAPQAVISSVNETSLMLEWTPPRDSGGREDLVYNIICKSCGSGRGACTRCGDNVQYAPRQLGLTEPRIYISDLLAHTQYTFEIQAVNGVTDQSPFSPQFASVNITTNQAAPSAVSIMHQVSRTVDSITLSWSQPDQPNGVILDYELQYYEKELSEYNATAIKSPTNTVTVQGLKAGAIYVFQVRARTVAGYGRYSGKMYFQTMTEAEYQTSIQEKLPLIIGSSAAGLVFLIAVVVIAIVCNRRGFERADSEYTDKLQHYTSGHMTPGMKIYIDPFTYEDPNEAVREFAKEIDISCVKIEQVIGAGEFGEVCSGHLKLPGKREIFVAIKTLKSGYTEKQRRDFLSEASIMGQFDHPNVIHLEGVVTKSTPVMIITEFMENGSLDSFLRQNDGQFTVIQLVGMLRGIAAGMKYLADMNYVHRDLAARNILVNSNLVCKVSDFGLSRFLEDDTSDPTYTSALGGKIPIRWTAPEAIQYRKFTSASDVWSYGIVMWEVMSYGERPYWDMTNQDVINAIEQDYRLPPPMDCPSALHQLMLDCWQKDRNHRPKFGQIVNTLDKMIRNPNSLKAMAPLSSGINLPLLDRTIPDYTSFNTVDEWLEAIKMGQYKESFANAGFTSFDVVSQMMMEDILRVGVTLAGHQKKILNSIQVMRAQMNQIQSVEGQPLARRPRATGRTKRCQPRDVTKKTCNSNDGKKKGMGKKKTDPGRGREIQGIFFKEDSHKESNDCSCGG
# protocol: phosphorylation enrichment, bacterial display (enrichment ratio); higher = better substrate or ligand; peptides without Tyr show the background
observable: phosphorylation enrichment

INSERT INTO results (sequence_string, target_under_test, result_number) VALUES
  ('FKPENYRRLDI [VHL_Y175_V170F]', 'EPHB2 (UniProt P29323)', 0.425),
  ('TAALWYIFLHT [ENG_Y612_S615L_YF]', 'EPHB2 (UniProt P29323)', 0.939),
  ('NKVKFYIPFMN [NCR1_Y84_D87Y_YF]', 'EPHB2 (UniProt P29323)', 0.528),
  ('EILLSDLRTGF [TGM1_Y365_Y365D_YF]', 'EPHB2 (UniProt P29323)', 0.477),
  ('ALADKYHGGGG [HBB_Y146_H144D]', 'EPHB2 (UniProt P29323)', 0.374),
  ('SLFNGYVYSGV [NEIL3_Y71]', 'EPHB2 (UniProt P29323)', 0.66),
  ('EFRFIYMAVQH [PTPN11_Y515_Q510E_YF]', 'EPHB2 (UniProt P29323)', 0.737),
  ('KDGNGYISVAE [CALM3_Y100_A103V]', 'EPHB2 (UniProt P29323)', 0.485),
  ('TKVTFYKQPMF [GBA_Y451_D448V]', 'EPHB2 (UniProt P29323)', 0.526),
  ('GRQWNYVASML [KLHL4_Y552_S557L]', 'EPHB2 (UniProt P29323)', 0.481),
  ('WFPANYVKLLN [ITSN1_Y1132_S1137N]', 'EPHB2 (UniProt P29323)', 1.21),
  ('PMDGEYFTLQI [TP53_Y327_L323M]', 'EPHB2 (UniProt P29323)', 0.753),
  ('SIKDKYVTAVY [KCNH2_Y611_L615V]', 'EPHB2 (UniProt P29323)', 0.423),
  ('NKKFHYRELPV [ERN2_Y860_H858Y_YF]', 'EPHB2 (UniProt P29323)', 0.351),
  ('PMQLPYDSTWE [PDGFRB_Y589]', 'EPHB2 (UniProt P29323)', 0.399),
  ('LIDGFYRLTED [JAK2_Y373_A377E_YF]', 'EPHB2 (UniProt P29323)', 0.89),
  ('FPKAHYHWLVL [APTX_Y214_R213H_YF]', 'EPHB2 (UniProt P29323)', 0.491),
  ('SAEKAYHEQLS [TUBA1A_Y282]', 'EPHB2 (UniProt P29323)', 0.424),
  ('GYITSYREEEQ', 'EPHB2 (UniProt P29323)', 0.659),
  ('GLIPAYHRVIM [NMNAT1_Y64]', 'EPHB2 (UniProt P29323)', 0.504),
  ('ALAAPYVLFPG [CEFIP_Y1332_YF]', 'EPHB2 (UniProt P29323)', 0.452),
  ('GDPTEYYITAI [IGSF22_Y501_S503I]', 'EPHB2 (UniProt P29323)', 0.647),
  ('VHSGTYQVTVC [MYBPC3_Y1043_R1048C]', 'EPHB2 (UniProt P29323)', 0.655),
  ('AGIENYKSRFG [NKD2_Y256_T257K]', 'EPHB2 (UniProt P29323)', 0.377),
  ('VKYLGYPPPEI [KDR_Y357_A352V]', 'EPHB2 (UniProt P29323)', 0.491),
  ('QTPVLYTMLDH [MPZ_Y220_A221T]', 'EPHB2 (UniProt P29323)', 1.78),
  ('SNFRAYATEPQ [TNNI3_Y29_H34Q_YF]', 'EPHB2 (UniProt P29323)', 0.408),
  ('GVTLLYFGRFN [ADGRD1_Y85_YF]', 'EPHB2 (UniProt P29323)', 0.676),
  ('TFEPNYGTVKQ [RAPGEF6_Y1447_YF]', 'EPHB2 (UniProt P29323)', 1.53),
  ('IPGGIYNADLN [CST4_Y35_D36N]', 'EPHB2 (UniProt P29323)', 0.366),
  ('NDFGNYNQQPS [HNRNPA2B1_Y306]', 'EPHB2 (UniProt P29323)', 0.604),
  ('EIEFLYNENTV [IARS1_Y680]', 'EPHB2 (UniProt P29323)', 0.584),
  ('CDKEYYSVHNK [MET_Y1235_Y1230C]', 'EPHB2 (UniProt P29323)', 0.69),
  ('WDLTDYLMKIL [ACTB_Y188_R183W]', 'EPHB2 (UniProt P29323)', 0.548),
  ('ACCLLYHGDVV [TUBA4A_Y319_R320H]', 'EPHB2 (UniProt P29323)', 0.539),
  ('GCRSKYVGLWR [KCNQ1_Y184_G189R]', 'EPHB2 (UniProt P29323)', 0.325);
